Attribute Measured: melting point

Q. // query melting point value for entry N#Cc1cc(NC(=N)c2ccccc2)cc(NC(=O)/C=C/c2ccccc2C(F)(F)F)c1 [Example 36]
A. 181 to 182 °C

Q. // query melting point value for entry Cc1ncccc1Oc1ccc(C(=N)Nc2cc(Cl)cc(NC(=O)C=Cc3ccccc3Cl)c2)cc1 [Example 59]
A. 105 to 107 °C

Q. // query melting point value for entry Cc1ccc(NC(=O)/C=C/c2ccccc2C(F)(F)F)cc1NC(=N)c1ccccc1 [Example 143]
A. 112 to 116 °C

Q. // query melting point value for entry CN(C)c1ccc(C(=N)Nc2cccc(NC(=O)C=Cc3ccccc3)c2)cc1 [Example 51]
A. 225 to 227 °C

Q. // query melting point value for entry N=C(Nc1cc(Cl)cc(NC(=O)/C=C/c2ccccc2Cl)c1)c1cccs1 [Example 33]
A. 123 to 124 °C

Q. // query melting point value for entry N=C(Nc1cc(Cl)cc(NC(=O)/C=C/c2ccccc2C(F)(F)F)c1)c1ccsc1 [Example 56]
A. 121 to 123 °C

Q. // query melting point value for entry COc1ccc(Cl)cc1C(=N)Nc1ccc(F)c(NC(=O)/C=C/c2ccccc2Cl)c1 [Example 18]
A. 229 to 230 °C

Q. // query melting point value for entry Cc1ccc(NC(=N)c2ccccc2)cc1NC(=O)/C=C/c1ccccc1C(F)(F)F [Example 139]
A. 220 to 222 °C

###

Attribute Measured: melting point

Q. // query melting point value for entry N=C(Nc1cccc(NC(=O)/C=C/c2ccccc2C(F)(F)F)c1)c1ccccc1
A. 82 to 84 °C

Q. // query melting point value for entry O=C(C=Cc1ccccc1Cl)Nc1cccc(-c2nc3ccccc3[nH]2)c1
A. 152 to 154 °C

Q. // query melting point value for entry CC(C)c1ccc(NC(=N)c2cccc(NC(=O)C=Cc3ccccc3Cl)c2)cc1
A. 112 to 118 °C

Q. // query melting point value for entry N=C(Nc1cccc(NC(=O)Cc2ccccc2)c1)c1ccccc1
A. 213 to 214 °C

Q. // query melting point value for entry N=C(Nc1cc(Cl)cc(NC(=O)/C=C/c2ccccc2C(F)(F)F)c1)c1cccs1
A. 178 to 179 °C

###

Attribute Measured: melting point

Q. // query melting point value for entry N=C(Nc1ccc(F)c(NC(=O)/C=C/c2ccccc2C(F)(F)F)c1)c1cccs1
A. 208 to 209 °C

Q. // query melting point value for entry Cc1ccccc1/C=C/C(=O)Nc1cccc(NC(=N)c2ccccc2)c1
A. 109 to 114 °C

Q. // query melting point value for entry N=C(Nc1cc(NC(=O)/C=C/c2ccccc2Cl)cc(C(F)(F)F)c1)c1cccs1
A. 206 to 208 °C

Q. // query melting point value for entry N=C(Nc1ccc(Cl)c(NC(=O)/C=C/c2ccccc2C(F)(F)F)c1)c1ccccc1
A. 198 to 199 °C

Q. // query melting point value for entry Cc1ncccc1Oc1ccc(C(=N)Nc2cc(Cl)cc(NC(=O)C=Cc3ccccc3C(F)(F)F)c2)cc1
A. 114 to 119 °C

Q. // query melting point value for entry CC(=O)Nc1ccc(C(=N)Nc2cc(NC(=O)/C=C/c3ccccc3C(F)(F)F)c(F)cc2F)cc1
A. 180 to 185 °C

Q. // query melting point value for entry N=C(Nc1cc(Cl)cc(NC(=O)/C=C/c2ccccc2Br)c1)c1ccccc1
A. 99 to 101 °C

Q. // query melting point value for entry COc1ccc(NC(=O)/C=C/c2ccccc2C(F)(F)F)cc1NC(=N)c1ccccc1
A. 213 to 214 °C

Q. // query melting point value for entry COc1ccccc1/C=C/C(=O)Nc1cccc(NC(=N)c2ccccc2)c1
A. 219 to 221 °C

Q. // query melting point value for entry CS(=O)(=O)Nc1cc(NC(=N)c2ccccc2)cc(NC(=O)/C=C/c2ccccc2C(F)(F)F)c1
A. 150 to 155 °C

Q. // query melting point value for entry N=C(Nc1cccc(NC(=O)C=Cc2ccccc2)c1)c1ccccc1
A. 115 to 117 °C

Q. // query melting point value for entry N=C(Nc1cccc(NC(=O)/C=C/c2cccc(Cl)c2)c1)c1ccccc1
A. 260 to 262 °C

Q. // query melting point value for entry Cc1ncccc1Oc1ccc(NC(=O)C=Cc2ccccc2Cl)cn1
A. 187 to 189 °C

Q. // query melting point value for entry O=C(C=Cc1ccccc1Cl)Nc1cc(Cl)cc(Nc2noc3ccccc23)c1
A. 133 to 135 °C

Q. // query melting point value for entry COc1cccc(/C=C/C(=O)Nc2cccc(NC(=N)c3ccccc3)c2)c1
A. 148 to 149 °C
